biological target: T1, M7-1; experiment: scFv-phage ELISA
T1 construct: also called PD1 mutant M7-1
quantity_name: OD490
One number for each entry.

PD1-41C9 (antibody, V domains shown, scFv-phage in the screening ELISA; whole IgG in the other assays) VH: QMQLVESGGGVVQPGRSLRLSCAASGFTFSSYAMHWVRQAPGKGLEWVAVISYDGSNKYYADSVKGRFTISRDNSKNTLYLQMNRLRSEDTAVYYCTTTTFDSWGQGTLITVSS VL: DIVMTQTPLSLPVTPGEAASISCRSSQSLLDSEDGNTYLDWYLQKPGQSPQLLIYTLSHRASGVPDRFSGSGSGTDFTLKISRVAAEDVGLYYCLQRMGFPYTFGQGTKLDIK: 1.2
PD1-48A9 (antibody, V domains shown, scFv-phage in the screening ELISA; whole IgG in the other assays) VH: QMQLVQSGAEVKKPGSSVKVSCKASGDTFTRYIINWVRQAPGQGLEWMGRVIPTLGLTTYAQNFQDTVTIIADKSTNTAYMELKNLRSEDTAVYYCARGYGSGAFDIWGQGTMITVSS VL: DIVMTQTPLSLPVTPGEPASISCRSSQSLLDSHDGNTYLDWYLQKPGQSPQLLIYTLSHRASGVPDRFSGSGSGTDFTLKISRVEAEDVGLYYCMQRIDFPYTFGQGTKVEIK: 0.4

Query block: What measured OD490 goes with PD1-31F3 (antibody, V domains shown, scFv-phage in the screening ELISA; later whole IgG) VH: QVQLVQSGAEVKKPGSSVKVSCKASGGTFSSYAISWVRQAPGQGLEWMGGIIPLFSTAHSAQKFQGRVTITADESSSTAYMELSSLRSEDTAVYYCAKHKGLPFDWSPDGFDTWGQGTMVTVSS VL: QFVLTQPPSVSGAPGQRVIISCTGSSSNIGAGYDVHWYQQLPGTAPKVLIYGNSDRPSGVPDRFSASKSATSASLAITGLQAEDEADYYCQSYDSSLSGYVFGTGTKVTVL ?
Result block: 0.8

Origin of measurements: patent US20190248900A1
